meta.source: ChEMBL document CHEMBL3885861

species: Rattus norvegicus; assay: Open TG-GATES - Regimen: Daily Repeat; format: toxicity, organism-based, Sprague-Dawley; design: regimen Daily Repeat, gender Male, age 6 weeks; details: in vivo, po, 0 mg/kg, 72 h, tissue Blood, route gavage, dose level Control, time 3 day
Please provide measured Mono for the entries that follow.
Give bare numbers, in %.

compound: CN1C(=O)OC(C)(C)C1=O
outputUnit: %
Mono: 2.6
//
compound: CCC(C)(C)C(=O)O[C@H]1C[C@@H](C)C=C2C=C[C@H](C)[C@H](CC[C@@H]3C[C@@H](O)CC(=O)O3)[C@H]21
outputUnit: %
Mono: 8.8
//
compound: CC(C)C(=O)Nc1ccc([N+](=O)[O-])c(C(F)(F)F)c1 [FLUTAMIDE]
outputUnit: %
Mono: 3
//
compound: CC(=N)S [THIOACETAMIDE]
outputUnit: %
Mono: 8
//
compound: C[C@](N)(Cc1ccc(O)c(O)c1)C(=O)O
outputUnit: %
Mono: 3.4
//
compound: Nc1nc(N)c2nc(-c3ccccc3)c(N)nc2n1
outputUnit: %
Mono: 2.2

Give measured Mono for every item shown.
1. C[C@]12CCC(=O)C=C1CC[C@@H]1[C@@H]2CC[C@@]2(C)[C@H]1CC[C@]2(C)O
2. CCN1CCCC1CNC(=O)c1cc(S(N)(=O)=O)ccc1OC (stereo not given) [SULPIRIDE]
3. CC(C)(S)[C@@H](N)C(=O)O

1. 2.4
2. 2.8
3. 3
